System: Meloidogyne incognita
Assay: Meloidogyne incognita test
Format: in vivo
Conditions: Meloidogyne incognita, 336 h, lettuce, gall formation after 14 days, read-out: nematicidal efficacy
Protocol: Meloidogyne incognita Test Solvent: 125.0 parts by weight of acetone An appropriate active ingredient formulation is produced by mixing 1 part by weight of active ingredient with the stated amount of solvent and diluting the concentrate to the desired concentration with water. […] After 14 days, the nematicidal efficacy in % is determined by the formation of galls. […]
Readout kind: pest or weed control at 20 ppm (%)

Smiles entry: CCS(=O)(=O)c1ccc(-n2ncn(-c3ccc(Br)cc3)c2=O)nc1-c1nc2cc(C(F)(F)C(F)(F)F)nnc2n1C
Readout kind: pest or weed control at 20 ppm
Unit abbrev: %
Measured: 100
--
Smiles entry: CCS(=O)(=O)c1ccc(-n2ncn(-c3ccc(C#N)c(Cl)c3)c2=O)nc1-c1nc2cc(C(F)(F)C(F)(F)F)cnc2n1C
Readout kind: pest or weed control at 20 ppm
Unit abbrev: %
Measured: 90
--
Smiles entry: CCS(=O)(=O)c1ccc(-n2ncn(-c3cccc(Br)c3)c2=O)nc1-c1nc2cc(C(F)(F)C(F)(F)F)nnc2n1C
Readout kind: pest or weed control at 20 ppm
Unit abbrev: %
Measured: 100
--
Smiles entry: CCS(=O)(=O)c1ccc(-n2ncn(-c3ccc(C4(C#N)CC4)cc3)c2=O)nc1-c1nc2cc(C(F)(F)C(F)(F)F)nnc2n1C
Readout kind: pest or weed control at 20 ppm
Unit abbrev: %
Measured: 90
--
Smiles entry: CCS(=O)(=O)c1ccc(-n2ncn(-c3cccc(F)c3)c2=O)nc1-c1nc2cc(C(F)(F)C(F)(F)F)cnc2n1C
Readout kind: pest or weed control at 20 ppm
Unit abbrev: %
Measured: 100
--
Smiles entry: CCS(=O)(=O)c1ccc(-n2ncn(-c3cccc(F)c3)c2=O)nc1-c1nc2cc(C(F)(F)C(F)(F)F)nnc2n1C
Readout kind: pest or weed control at 20 ppm
Unit abbrev: %
Measured: 100
--
Smiles entry: CCS(=O)(=O)c1ccc(-n2ncn(-c3ccc(F)cc3)c2=O)nc1-c1nc2cc(C(F)(F)C(F)(F)F)nnc2n1C
Readout kind: pest or weed control at 20 ppm
Unit abbrev: %
Measured: 100

----------
Test system: Meloidogyne incognita
Experiment: Meloidogyne incognita test
Format: in vivo
Conditions: Meloidogyne incognita, 336 h, lettuce, gall formation after 14 days, read-out: nematicidal efficacy
Each entry below carries its reported pest or weed control at 20 ppm.

Smiles entry: CCS(=O)(=O)c1ccc(-n2ncn(-c3ccc(I)cc3)c2=O)nc1-c1nc2cc(C(F)(F)C(F)(F)F)cnc2n1C
pest or weed control at 20 ppm, %: 90
--
Smiles entry: CCS(=O)(=O)c1ccc(-n2ncn(-c3ccc(I)cc3)c2=O)nc1-c1nc2cc(C(F)(F)C(F)(F)F)nnc2n1C
pest or weed control at 20 ppm, %: 90
--
Smiles entry: CCS(=O)(=O)c1ccc(-n2ncn(-c3ccc(Cl)c(C#N)c3)c2=O)nc1-c1nc2cc(C(F)(F)C(F)(F)F)cnc2n1C
pest or weed control at 20 ppm, %: 100
--
Smiles entry: CCS(=O)(=O)c1ccc(-n2ncn(-c3ccc(F)cc3)c2=O)nc1-c1nc2cc(C(F)(F)C(F)(F)F)cnc2n1C
pest or weed control at 20 ppm, %: 100
--
Smiles entry: CCS(=O)(=O)c1ccc(-n2ncn(-c3ccc(C#N)c(Cl)c3)c2=O)nc1-c1nc2cc(C(F)(F)C(F)(F)F)nnc2n1C
pest or weed control at 20 ppm, %: 100
--
Smiles entry: CCS(=O)(=O)c1ccc(-n2ncn(-c3ccc(Cl)c(C#N)c3)c2=O)nc1-c1nc2cc(C(F)(F)C(F)(F)F)nnc2n1C
pest or weed control at 20 ppm, %: 100
